// provenance: PubChem BioAssay AID1159580

Test: chemical genetic growth profiling, strain panel (AID 1159580);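 note: tested at 20 µM; growth read once vehicle control cultures reached saturation at 30 °C; 1 = growth at the plate median or of vehicle wells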
Settings: S. cerevisiae deletion strains, growth OD, locus YOL006C, strain TOP1, stronger effect = lower value
In all, about 5,500 compounds went through this assay and about 2,000 (36%) were called active. About 18% were inconclusive and are not listed. The list shows a part of the results.
Threshold 1: normalized growth strictly smaller gives Criterion met, otherwise Criterion not met.

COMPOUND	ANSWER LABEL
CCN(CC)CCNC(=O)c1cc(Cl)c(N)cc1OC	Criterion not met
Cc1cc(C)cc(N2C(=O)CC(Sc3ccccc3C(=O)O)C2=O)c1 (stereo unspecified)	Criterion met
NC(=O)NO	Criterion met
Cn1c(=O)c(-c2ccccc2)c(O)c2ccccc21	Criterion met
CO[C@@]1(NC(=O)Cc2cccs2)C(=O)N2C(C(=O)O)=C(COC(N)=O)CS[C@@H]21	Criterion not met

Here's the next entry for you.
Consider the compound `CC(=O)Oc1cccc(C(=O)O)c1OC(C)=O` . Is its normalized growth strictly less than 1? Criterion not met

* * *

Experiment: chemical genetic growth profiling, strain panel (AID 1159580)
Conditions: S. cerevisiae deletion strains, growth OD, locus YLR027C, strain aat2, stronger effect = lower value
Among all 5,500 compounds or so, about 2,000 (36%) were called active. About 18% were inconclusive and are not listed. This is one part of the list.
OUTCOME MEASURE: normalized growth
Could you keep your reply to the number by itself?

The examples below pair each entry with its known result.
In [3]: df
Out[3]:
                              record_smiles    outcome_measure  observed_result
0  O=C(O)[C@H](O)[C@@](O)(Cc1ccc(O)cc1)C(=O)O  normalized growth             1.01
1                   CC1=NN(c2ccccc2)C(=O)C1  normalized growth            0.994

We next turn to a different compound, shown below.
# lookup: normalized growth of `COc1cc(-c2oc3cc(O)ccc3c(=O)c2O)ccc1O` 0.902

* * *

Assay: chemical genetic growth profiling, strain panel (AID 1159580);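 note: tested at 20 µM; growth read once vehicle control cultures reached saturation at 30 °C; 1 = growth at the plate median or of vehicle wells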
Conditions: S. cerevisiae deletion strains, growth OD, locus YDL040C, strain nat1
Hit rate of the full screen: of about 5,500 compounds, about 2,000 (36%) were called active. Another 18% or so got no clear call; they are omitted. Cut-off read from the data, not from the text of the source: active = normalized growth mostly below about 0.91 (no sharp cut-off); inconclusive = no clear call, values can overlap the other calls; inactive = mostly above about 0.92. The list shows a part of the results. *1 amine or outer side, *2 acyl side, *3 side chain or, on linkers, in order; H or OH if unused. Where a SMILES comes first, the peptide text is derived from it. Bridges are numbered along the chain shown (N, C = ends). [ ]: non-standard residue; d: D form. The star is where a group is joined. ξ: configuration not given here. ΔAla(E,3-NHCONH2) = NC(=O)N/C=C(/N)C(=O)O; X2 = NC1=NCCC(C(N[*:1])C(=O)[*:2])N1; ξβ3hOrn = NCCCC(N)CC(=O)*; Dap = NC[CH](N)C(=O)O
Select the matching outcome among active, inactive

Sample answers from the record:
COMPOUND	ANSWER LABEL
C#CC1(O)CCC2C3CCC4=CC(=O)CCC4(C)C3CCC21C (stereo not given)	inactive
COc1cccc(OC)c1C(=O)N[C@@H]1C(=O)N2[C@@H]1SC(C)(C)[C@@H]2C(=O)O	inactive

Recorded call for `CC(=O)N[C@@H](Cc1c[nH]c2ccccc12)C(=O)O` ? inactive

Status in this test for `Cc1cc(=O)n(-c2ccccc2)n1C` ? inactive

How was `COC(=O)[C@]1(C)CC[C@]2(C)CC[C@]3(C)C4=CC=C5C(=CC(=O)C(O)=C5C)[C@]4(C)CC[C@@]3(C)[C@@H]2C1` classified in this test? inactive

Per the records of this test, what outcome belongs to CC(=O)Oc1cc2c(c(C)c1OC(C)=O)CC1OC13C2(C)CCC1(C)C2CC(C)(C(=O)O)CCC2(C)CCC13C (stereo not given) ? inactive

I would be grateful if you could indicate the recorded call for NCCCC(N)CC(=O)NCC1NC(=O)C(CO)NC(=O)C(N)CNC(=O)C(C2CCN=C(N)N2)NC(=O)/C(=C\NC(N)=O)NC1=O (stereo not drawn) (H-[Dap]S[Dap](ξβ3hOrn)[ΔAla(E,3-NHCONH2)][X2]; lactam 1-C; configuration not given here) . inactive

Recorded call for CNC(Cc1c[nH]c2ccccc12)C(=O)O (stereo not given) ? inactive

For `CCOC([O-])=Nc1c[n+](N2CCOCC2)no1` , which call appears in the assay record? inactive

State the result this test recorded for `CO[C@@]1(NC(=O)Cc2cccs2)C(=O)N2C(C(=O)O)=C(COC(N)=O)CS[C@@H]21` . inactive

* * *

# normalized growth values compiled below
Experiment: chemical genetic growth profiling, strain panel (AID 1159580);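 note: tested at 20 µM; growth read once vehicle control cultures reached saturation at 30 °C; 1 = growth at the plate median or of vehicle wells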
Conditions: S. cerevisiae deletion strains, growth OD, locus YCL016C, strain dcc1, stronger effect = lower value
In all, about 5,500 compounds went through this assay and about 2,000 (36%) were called active. Inconclusive results (about 18%) are left out. Some of the results follow. Where a SMILES comes first, the peptide text is derived from it. Side-chain parts run from the residue outwards. [ ]: non-standard residue; d: D form. The star is where a group is joined. X1 = CCC(C)C(N)C1=NC(C(=O)*)CS1; Orn = NCCC[CH](N)C(=O)O
Please give only the number in your answer, with no unit.

Would you please look over these solved cases?
COMPOUND	normalized growth
NCCc1c[nH]c2ccccc12	0.98
CC(=O)O[C@H]1CC[C@]2(C)C3CC[C@@]4(C)C(CC5O[C@@]6(CCC(C)CO6)[C@@H](C)C54)C3CC[C@@H]2C1 (stereo partly specified)	1.01
COc1cc2c(cc1OC)[C@@H]1C(=O)c3ccc4c(c3O[C@@H]1CO2)CC(C(C)C)O4 (stereo partly specified)	0.984
NC[C@H]1O[C@H](O[C@H]2C(O[C@@H]3O[C@H](CO)[C@@H](O)[C@H]3O)[C@@H](O)[C@H](N)C[C@@H]2N)[C@H](N)[C@@H](O)[C@@H]1O (stereo partly specified)	0.996
CCC(C)C(N)C1=NC(C(=O)NC(CC(C)C)C(=O)NC(CCC(=O)O)C(=O)NC(C(=O)NCCCCC2NC(=O)C(CC(N)=O)NC(=O)C(CC(=O)O)NC(=O)C(Cc3cnc[nH]3)NC(=O)C(Cc3ccccc3)NC(=O)C(C(C)CC)NC(=O)C(CCCN)NC2=O)C(C)CC)CS1 (stereo not drawn) (cyclo(DNK([Ile-Glu-Leu-X1])[Orn]IFH); configuration not given here)	0.981

Item under review: CC(=O)O[C@H]1CC[C@]2(C)C3CC(=O)[C@]4(C)C(C(C)=O)=CCC4C3CC[C@H]2C1 (stereo partly specified) . Reported normalized growth? 0.992

Need normalized growth, item CC(=O)OC1CCC2(C)C3CC(=O)C4(C)C(CC5OC6(CCC(C)CO6)[C@@H](C)C54)C3CC[C@H]2C1 (stereo partly specified) 0.98

# lookup: normalized growth of CC1=CC2C(C(C)C)CCC(C)(O)C2CC1 (stereo unspecified) 0.972

// lookup normalized growth for `CN[C@@H]1[C@@H](O[C@H]2O[C@H](CO)[C@@H](N)[C@H](O)[C@H]2O)O[C@H]2C[C@@H](N)[C@H](O[C@H]3[C@H](O)[C@@H](O)[C@H](N)C[C@@H]3N)O[C@@H]2[C@@H]1O` 0.994

For the compound CC1(C)C(=O)[C@@H]2C[C@@]3(O)C4=CC(=O)O[C@@H](c5ccoc5)[C@]4(C)CCC3[C@@](C)(C2=O)[C@H]1CC(=O)O (stereo partly specified) , what normalized growth is on record? 1.01

Which normalized growth value is on record for C[C@]12CCC(=O)C=C1CCC1C2[C@@H](O)C[C@@]2(C)C1CC[C@]2(O)C(=O)COC(=O)CCC(=O)O (stereo partly specified) ? 0.993

Which normalized growth value is on record for `CCNc1nc(Cl)nc(NCC)n1` ? 1.01

# lookup: normalized growth of CC(C)CC1NC(=O)C(CCCN)NC(=O)C(C(C)C)NC(=O)C2CCCN2C(=O)C(Cc2ccccc2)NC(=O)C(CC(C)C)NC(=O)C(CCCN)NC(=O)C(C(C)C)NC(=O)C2CCCN2C(=O)C(Cc2ccccc2)NC1=O (stereo unspecified) (cyclo(FPV[Orn]LFPV[Orn]L); configuration not given here) 1

* * *

Experiment: chemical genetic growth profiling, strain panel (AID 1159580);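 note: tested at 20 µM; growth read once vehicle control cultures reached saturation at 30 °C; 1 = growth at the plate median or of vehicle wells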
Settings: S. cerevisiae deletion strains, growth OD, locus YPR141C, strain kar3, stronger effect = lower value
Out of some 5,500 compounds screened, about 2,000 (36%) were called active. Inconclusive results (about 18%) are left out. This is one part of the list. Where a SMILES comes first, the peptide text is derived from it. Bridges are numbered along the chain shown (N, C = ends). [ ]: non-standard residue; d: D form. The star is where a group is joined. Octanoyl(6-Me) = CCC(C)CCCCC(=O)*; Dab = NCC[CH](N)C(=O)O
OUTCOME MEASURE: normalized growth
Enter a number only.

# example entries with known answers
COMPOUND	normalized growth
CCC(C)CCCCC(=O)NC(CCN)C(=O)NC(C(=O)NC(CCN)C(=O)NC1CCNC(=O)C(C(C)O)NC(=O)C(CCN)NC(=O)C(CCN)NC(=O)C(CC(C)C)NC(=O)C(Cc2ccccc2)NC(=O)C(CCN)NC1=O)C(C)O (stereo not given) ({Octanoyl(6-Me)}-[Dab]T[Dab][Dab][Dab]FL[Dab][Dab]T; lactam 4-C; configuration not given here)	1.01
CC(=O)O[C@H]1CC[C@]2(C)C3CC(=O)[C@]4(C)C(C(C)=O)=CCC4C3CC[C@H]2C1 (stereo not given in full)	1
COc1cc2c(cc1OC)[C@@]13CCN4CC5=CCOC6CC(=O)N2C1[C@H]6[C@H]5C[C@H]43 (stereo not given in full)	0.998
CC(=O)OCC(=O)[C@@]1(O)CCC2C3CC[C@@H]4C[C@H](OC(C)=O)CC[C@]4(C)C3C(=O)C[C@@]21C (stereo not given in full)	1.02
COc1c2c(cc3c1OCO3)C13C=C[C@H](OC)CC1N(C2)CC3O (stereo not given in full)	0.968

Query compound follows.
What value of measured normalized growth is listed for COc1cc2c(cc1OC)[C@@H]1C(=O)c3ccc4c(c3O[C@@H]1CO2)CC(C(C)C)O4 (stereo not given in full) ? 1
